System: human T24 bladder carcinoma cells
ASSAY_SUMMARY: inhibition of growth of human T24 bladder carcinoma cells (methylene blue staining)
Format: cell-based
CONDITIONS_USED: Homo sapiens, 120 h, read-out: T24 inhibition IC50
Where a name gives a salt, the structure may show the parent alone.
ATTRIBUTE_MEASURED: pIC50
Answers are plain numbers, as −log10 of the molar value.

Qu. Returns the measured pIC50 for the input molecule. Input: CC(CN)CON (stereo not shown) [Example 7, sulfate]
Ans. 5.56

====

Can you tell me IC50 for the items I'm about to list?
Test system: human T24 bladder carcinoma cells
ASSAY_SUMMARY: inhibition of growth of human T24 bladder carcinoma cells (methylene blue staining)
Assay type: cell-based
CONDITIONS_USED: 120 h; human T24 bladder carcinoma cells, 5 days; read-out: T24 inhibition IC50
Structures can show the parent of a compound that is named as a salt.
One number for each entry, in µM.

Below, 2 compounds whose answers are already recorded.
COMPOUND	SYSTEM	IC50, µM
C[C@@H](N)CCON [Example 2, dihydrochloride]	human T24 bladder carcinoma cells	5.49
C[C@H](N)CCON [Example 1, dihydrochloride]	human T24 bladder carcinoma cells	8.1

Qu. Please look up its IC50: CC(N)CCON (stereo not drawn) [Example 3, 4-Aminooxy-2-butylamine dihydrochloride]
Ans. 3.76
